The values you see were collected from patent US20150087627A1.

Target: PI3K δ (Homo sapiens)
Construct: purchased Upstate / Millipore Corporation
Sequence (O00329 whole entry): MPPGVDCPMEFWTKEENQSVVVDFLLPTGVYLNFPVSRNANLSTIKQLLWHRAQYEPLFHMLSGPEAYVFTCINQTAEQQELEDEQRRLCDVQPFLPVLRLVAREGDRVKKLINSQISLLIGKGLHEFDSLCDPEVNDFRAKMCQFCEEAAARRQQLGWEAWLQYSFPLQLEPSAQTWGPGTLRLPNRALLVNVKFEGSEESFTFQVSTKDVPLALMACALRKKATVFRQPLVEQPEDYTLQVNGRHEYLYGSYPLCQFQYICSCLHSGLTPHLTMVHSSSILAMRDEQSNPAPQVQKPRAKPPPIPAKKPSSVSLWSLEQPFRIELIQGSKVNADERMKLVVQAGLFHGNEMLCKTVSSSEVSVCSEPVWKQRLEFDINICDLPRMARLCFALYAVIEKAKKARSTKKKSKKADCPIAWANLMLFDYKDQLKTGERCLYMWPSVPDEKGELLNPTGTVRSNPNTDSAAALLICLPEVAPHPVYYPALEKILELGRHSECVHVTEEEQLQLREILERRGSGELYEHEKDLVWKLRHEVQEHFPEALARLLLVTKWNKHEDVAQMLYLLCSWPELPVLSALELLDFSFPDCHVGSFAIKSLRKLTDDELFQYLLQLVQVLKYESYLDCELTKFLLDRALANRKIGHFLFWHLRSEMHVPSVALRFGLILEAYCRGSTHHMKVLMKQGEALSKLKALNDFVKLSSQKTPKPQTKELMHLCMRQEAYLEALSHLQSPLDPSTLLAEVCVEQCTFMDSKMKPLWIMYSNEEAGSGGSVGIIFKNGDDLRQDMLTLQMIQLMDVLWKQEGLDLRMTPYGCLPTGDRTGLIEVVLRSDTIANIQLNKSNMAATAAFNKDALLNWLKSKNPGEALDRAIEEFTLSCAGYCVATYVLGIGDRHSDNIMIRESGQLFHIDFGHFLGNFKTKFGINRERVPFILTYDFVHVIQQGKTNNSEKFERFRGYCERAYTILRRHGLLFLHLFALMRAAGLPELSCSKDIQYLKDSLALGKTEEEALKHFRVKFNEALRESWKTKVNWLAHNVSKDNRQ
Sequence (P27986 whole entry partner): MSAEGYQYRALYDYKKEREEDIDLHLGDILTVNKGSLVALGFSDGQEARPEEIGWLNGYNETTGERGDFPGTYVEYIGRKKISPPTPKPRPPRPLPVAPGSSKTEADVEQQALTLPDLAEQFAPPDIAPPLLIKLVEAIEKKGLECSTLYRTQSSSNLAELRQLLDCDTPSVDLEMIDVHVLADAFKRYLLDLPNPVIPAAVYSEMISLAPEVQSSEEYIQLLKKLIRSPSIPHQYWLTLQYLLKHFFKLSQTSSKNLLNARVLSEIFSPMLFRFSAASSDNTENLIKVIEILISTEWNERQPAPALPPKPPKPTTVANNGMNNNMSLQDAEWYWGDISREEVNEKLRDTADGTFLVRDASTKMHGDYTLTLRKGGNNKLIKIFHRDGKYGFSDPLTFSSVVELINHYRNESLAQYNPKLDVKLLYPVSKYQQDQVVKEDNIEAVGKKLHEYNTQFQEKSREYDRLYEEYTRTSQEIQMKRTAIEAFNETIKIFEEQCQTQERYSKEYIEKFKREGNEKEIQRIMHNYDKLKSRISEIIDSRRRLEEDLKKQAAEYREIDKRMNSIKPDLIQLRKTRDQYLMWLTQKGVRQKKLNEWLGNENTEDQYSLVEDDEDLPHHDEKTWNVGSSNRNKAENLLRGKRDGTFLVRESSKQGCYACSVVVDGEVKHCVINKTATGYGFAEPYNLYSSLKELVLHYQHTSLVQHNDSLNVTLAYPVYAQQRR
Test: PI 3-Kinase (human) HTRF assay, PI3K δ
Assay type: biochemical
Conditions: read-out: PI3K δ IC50
MEASUREMENT KIND: IC50

*Q* // fetch IC50 given entry `O=C(c1cnc2ccc(-c3cnc(Cl)c(NS(=O)(=O)c4ccc(F)cc4F)c3)cn12)N1CCOCC1`
*A* < 100 nM

*Q* Indicate its recorded IC50; the compound in question is `CN1CCC(c2cnc3ccc(-c4ccc5oc(N)nc5c4)cc3n2)CC1`
*A* > 10000 nM

*Q* Identify measured IC50 corresponding to `CN1CCN(c2ccc(-c3cnc4ccc(-c5ccc6oc(N)nc6c5)cn34)cn2)CC1`
*A* < 1000 nM

###

Target: PI3K α (p110α/p85α) (Homo sapiens)
Construct: purchased Upstate / Millipore Corporation
Sequence (P42336 whole entry): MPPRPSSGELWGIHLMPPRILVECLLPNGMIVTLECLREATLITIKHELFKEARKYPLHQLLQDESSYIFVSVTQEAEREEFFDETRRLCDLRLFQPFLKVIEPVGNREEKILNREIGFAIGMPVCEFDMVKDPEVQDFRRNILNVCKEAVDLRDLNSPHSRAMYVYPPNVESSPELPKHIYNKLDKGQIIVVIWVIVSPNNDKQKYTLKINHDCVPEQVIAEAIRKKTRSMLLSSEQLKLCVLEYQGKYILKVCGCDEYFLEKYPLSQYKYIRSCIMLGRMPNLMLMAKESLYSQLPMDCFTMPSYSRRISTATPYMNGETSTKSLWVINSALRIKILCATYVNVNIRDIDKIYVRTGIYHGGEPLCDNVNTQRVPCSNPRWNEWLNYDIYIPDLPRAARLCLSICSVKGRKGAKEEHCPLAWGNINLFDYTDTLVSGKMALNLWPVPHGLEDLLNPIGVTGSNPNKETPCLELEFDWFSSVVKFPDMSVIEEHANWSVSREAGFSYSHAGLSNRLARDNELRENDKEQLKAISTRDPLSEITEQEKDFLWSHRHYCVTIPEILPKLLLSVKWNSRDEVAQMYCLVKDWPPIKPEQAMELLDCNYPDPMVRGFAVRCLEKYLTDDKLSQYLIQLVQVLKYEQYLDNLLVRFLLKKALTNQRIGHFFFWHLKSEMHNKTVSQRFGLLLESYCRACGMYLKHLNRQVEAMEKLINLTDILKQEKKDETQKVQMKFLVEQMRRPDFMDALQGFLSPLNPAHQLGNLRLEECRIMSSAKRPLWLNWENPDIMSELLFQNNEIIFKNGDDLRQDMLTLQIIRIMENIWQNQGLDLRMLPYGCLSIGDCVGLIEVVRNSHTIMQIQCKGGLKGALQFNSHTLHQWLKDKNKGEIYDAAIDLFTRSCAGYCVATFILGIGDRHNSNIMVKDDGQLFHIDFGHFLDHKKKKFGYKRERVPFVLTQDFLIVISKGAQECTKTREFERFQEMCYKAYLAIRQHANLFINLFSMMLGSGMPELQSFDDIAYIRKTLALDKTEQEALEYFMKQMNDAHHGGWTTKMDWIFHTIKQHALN
Sequence (P27986 whole entry partner): as the sequence (P27986 whole entry partner) above
Test: PI 3-Kinase (human) HTRF assay, PI3K α
Format: biochemical
Details: read-out: PI3K α IC50
pIC50: −log10 of the molar value.
Kindly state pIC50 for each of the entries shown.

*Q* Provide measured pIC50 on PI3K α (p110α/p85α) (Homo sapiens) for `Nc1nc2cc(-c3ccc4nnc(-c5cccnc5)n4c3)ccc2o1` please.
*A* > 5.00

*Q* Answer briefly: pIC50 recorded on PI3K α (p110α/p85α) (Homo sapiens) for `Cc1cc2oc(N)nc2cc1-c1ccc2ncc(N3CCN[C@@H](C)C3)nc2c1`
*A* > 5.00

*Q* // output pIC50; input `Nc1nc2cc(-c3ccc4nccc(CCN5CCOCC5)c4c3)ccc2o1` ; system PI3K α (p110α/p85α) (Homo sapiens)
*A* > 6.00

*Q* Answer briefly: pIC50 recorded on PI3K α (p110α/p85α) (Homo sapiens) for `CS(=O)(=O)Nc1nc2cc(-c3ccc4ncc(C(=O)N5CCOCC5)n4c3)ccc2o1`
*A* < 5.00

*Q* Give pIC50 for this entry on PI3K α (p110α/p85α) (Homo sapiens): `Cn1cc(-c2ccnc3ccc(-c4ccc5oc(N)nc5c4)cc23)cn1`
*A* > 7.00

*Q* Provide pIC50, recorded with PI3K α (p110α/p85α) (Homo sapiens), of `CN1CCC(Nc2ncnc3ccc(-c4ccc5oc(N)nc5c4)cc23)CC1`
*A* > 7.00

*Q* Report the value of pIC50 obtained on PI3K α (p110α/p85α) (Homo sapiens) for `CC(=O)Nc1nc(C)c(-c2ccc3oc(N)nc3c2)s1` .
*A* > 6.00

*Q* Lab note: record pIC50 of `Nc1nc2cc(-c3ccc4ncc(C(=O)N5CC[C@@H](n6cccn6)C5)n4c3)ccc2o1` tested on PI3K α (p110α/p85α) (Homo sapiens).
*A* > 7.00

*Q* Check PI3K α (p110α/p85α) (Homo sapiens) data and give pIC50 for `C[C@H]1CN(c2cnc3scc(-c4ccc5oc(N)nc5c4)c3c2)CCN1` .
*A* < 5.00

*Q* Find pIC50 for `CO[C@@H]1CCN(C(=O)c2cnc3ccc(-c4ccc5oc(N)nc5c4)cn23)C1` on PI3K α (p110α/p85α) (Homo sapiens) and write it down.
*A* > 7.00

*Q* Give measured pIC50 for `CNC(=O)N1CCN(c2cnc3ccc(-c4ccc5oc(N)nc5c4)cc3n2)CC1` (PI3K α (p110α/p85α) (Homo sapiens)).
*A* > 7.00

*Q* Write down the reported pIC50 (system: PI3K α (p110α/p85α) (Homo sapiens)) of `Nc1nc2cc(-c3ccc4ncc(N5CCN(C(=O)[C@@H](N)CO)CC5)nc4c3)ccc2o1`
*A* > 7.00

*Q* Please report the measured pIC50 for `Nc1nc2cc(-c3cn4c(-c5cn[nH]c5)cnc4cn3)ccc2o1` tested on PI3K α (p110α/p85α) (Homo sapiens).
*A* > 6.00

*Q* For PI3K α (p110α/p85α) (Homo sapiens), give pIC50 of the listed compound: `C[C@H](N)C(=O)N1CCN(c2cnc3ccc(-c4ccc5oc(N)nc5c4)cc3n2)CC1`
*A* > 7.00

*Q* Give the observed pIC50 of `Nc1nc2cc(-c3ccc4ncc(N5CCCC5)nc4c3)ccc2o1` for PI3K α (p110α/p85α) (Homo sapiens).
*A* > 7.00

*Q* Specify pIC50 for `Nc1cn2cc(-c3ccc4nc(N)oc4c3)ccc2n1` , system PI3K α (p110α/p85α) (Homo sapiens).
*A* < 5.00

*Q* Give reported pIC50 for `O=C(c1cnc2ccc(-c3cncc(NS(=O)(=O)c4ccccc4)c3)cn12)N1CCOCC1` (PI3K α (p110α/p85α) (Homo sapiens))
*A* > 6.00

*Q* State, for PI3K α (p110α/p85α) (Homo sapiens), measured pIC50 of the compound listed here: `CS(=O)(=O)CCN1CCC(Nc2cnc3ccc(-c4ccc5oc(N)nc5c4)cc3n2)CC1`
*A* > 7.00

*Q* Check PI3K α (p110α/p85α) (Homo sapiens) data and give pIC50 for `N#Cc1cnc2ccc(-c3ccc4oc(N)nc4c3)cc2c1` .
*A* > 6.00

*Q* Report pIC50 on PI3K α (p110α/p85α) (Homo sapiens) for this entry: `COC(=O)N1CCN(c2cnc3ccc(-c4ccc5oc(N)nc5c4)cc3n2)CC1`
*A* > 7.00

*Q* Fill: pIC50 (PI3K α (p110α/p85α) (Homo sapiens)) for this compound `CCN(CC)C1CN(c2cnc3ccc(-c4ccc5oc(N)nc5c4)cc3n2)C1`
*A* > 7.00

*Q* Answer with pIC50 of `CC(=O)Nc1nc2cc(-c3ccc4oc(N)nc4c3)ccc2o1` measured for PI3K α (p110α/p85α) (Homo sapiens).
*A* < 5.00

*Q* Determine reported pIC50 for `Nc1nc2cc(-c3ccc4ncc(-c5cn[nH]c5)n4n3)ccc2o1` ; test system: PI3K α (p110α/p85α) (Homo sapiens).
*A* > 7.00

*Q* Enter pIC50 (test system PI3K α (p110α/p85α) (Homo sapiens)) for `Nc1nc2cc(-c3ccc4ncc(C(=O)N5CCC(O)CC5)n4c3)ccc2o1`
*A* > 6.00

*Q* Print PI3K α (p110α/p85α) (Homo sapiens) pIC50 for `CCN(CC)CCCn1cnc2ccc(-c3ccc4oc(N)nc4c3)cc2c1=O` .
*A* > 6.00

*Q* Find the measured pIC50 of `O=C(c1cnc2ccc(-c3cccc(S(=O)(=O)Nc4ccccc4)c3)cn12)N1CCOCC1` with PI3K α (p110α/p85α) (Homo sapiens) as test system.
*A* < 5.00

*Q* Name the recorded pIC50 of `Nc1ncc2cc(-c3ccc4nccc(-c5ccncc5)c4c3)ccc2n1` , assay system PI3K α (p110α/p85α) (Homo sapiens).
*A* > 6.00

*Q* For PI3K α (p110α/p85α) (Homo sapiens), give pIC50 of the listed compound: `C[C@@H]1CN(C(=O)c2cnc3ccc(-c4ccc5oc(N)nc5c4)cn23)C[C@H](C)O1`
*A* > 5.00

*Q* Provide measured pIC50 on PI3K α (p110α/p85α) (Homo sapiens) for `O=C(c1cnc2ccc(-c3cnc4cn[nH]c4c3)cn12)N1CCOCC1` please.
*A* > 5.00

*Q* // output pIC50; input `Nc1nc2cc(-c3ccc4ncc(S(=O)(=O)N5CCOCC5)n4c3)ccc2o1` ; system PI3K α (p110α/p85α) (Homo sapiens)
*A* < 5.00

*Q* Please tell me the measured pIC50 for `CN1CCC(NC(=O)c2cnc3ccc(-c4ccc5oc(N)nc5c4)nn23)CC1` ; system: PI3K α (p110α/p85α) (Homo sapiens).
*A* > 7.00

###

Target: PI3K β (p110β/p85α) (Homo sapiens)
Construct: purchased Upstate / Millipore Corporation
Sequence (P42338 whole entry, one chain of several): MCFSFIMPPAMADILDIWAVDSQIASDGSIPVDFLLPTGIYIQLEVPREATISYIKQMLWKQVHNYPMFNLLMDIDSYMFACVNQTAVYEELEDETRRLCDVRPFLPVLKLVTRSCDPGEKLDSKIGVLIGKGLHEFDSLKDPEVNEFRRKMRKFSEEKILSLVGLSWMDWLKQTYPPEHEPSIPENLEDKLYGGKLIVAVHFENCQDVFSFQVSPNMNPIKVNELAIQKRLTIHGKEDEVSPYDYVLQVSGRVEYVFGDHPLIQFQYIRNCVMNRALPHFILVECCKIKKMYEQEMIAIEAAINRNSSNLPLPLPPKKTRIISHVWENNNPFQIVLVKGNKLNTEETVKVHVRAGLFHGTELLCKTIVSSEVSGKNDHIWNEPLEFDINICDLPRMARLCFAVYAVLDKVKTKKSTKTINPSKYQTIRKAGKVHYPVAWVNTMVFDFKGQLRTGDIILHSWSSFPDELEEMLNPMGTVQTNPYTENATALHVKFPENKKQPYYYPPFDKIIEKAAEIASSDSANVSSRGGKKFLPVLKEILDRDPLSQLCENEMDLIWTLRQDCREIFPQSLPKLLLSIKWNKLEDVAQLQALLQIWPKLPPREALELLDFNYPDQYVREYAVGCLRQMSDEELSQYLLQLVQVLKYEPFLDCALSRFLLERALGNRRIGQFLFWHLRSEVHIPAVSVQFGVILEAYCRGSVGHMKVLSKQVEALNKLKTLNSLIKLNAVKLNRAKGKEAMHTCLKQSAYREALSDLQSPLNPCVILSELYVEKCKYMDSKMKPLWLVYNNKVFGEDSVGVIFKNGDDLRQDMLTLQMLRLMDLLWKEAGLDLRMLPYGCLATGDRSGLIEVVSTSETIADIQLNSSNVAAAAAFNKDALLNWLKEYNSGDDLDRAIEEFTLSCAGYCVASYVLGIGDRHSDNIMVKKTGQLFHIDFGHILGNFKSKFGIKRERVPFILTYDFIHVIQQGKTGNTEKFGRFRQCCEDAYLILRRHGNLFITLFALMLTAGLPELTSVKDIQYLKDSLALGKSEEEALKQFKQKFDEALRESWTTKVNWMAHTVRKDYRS
Experiment: PI 3-Kinase (human) HTRF assay, PI3K β
Format: biochemical
Conditions: read-out: PI3K β IC50
pIC50: −log10 of the molar value.
MEASUREMENT KIND: pIC50

*Q* Give me measured pIC50, please, for this molecule: `CNc1noc2cc(-c3ccc4ncc(C(=O)N5CCOCC5)n4c3)ccc12`
*A* < 5.00

*Q* Please give measured pIC50 of the following entry: `Nc1ncc2cc(-c3ccc4nccc(-c5ccncc5)c4c3)ccc2n1`
*A* > 5.00

*Q* State its pIC50 for this molecule: `Nc1nc2cc(-c3ccc4ncc(C(=O)N5CC[C@H](O)C5)n4c3)ccc2o1`
*A* > 5.00

*Q* Give reported pIC50 value for `Nc1nc2cc(-c3ccc4ncc(C(=O)N5CCC(F)(F)C5)n4c3)ccc2o1`
*A* < 5.00

*Q* Item `Cc1cc2ncc(C(=O)N3CCOCC3)n2cc1-c1ccc2oc(N)nc2c1` : provide pIC50
*A* < 5.00

*Q* Supply recorded pIC50 for `C[C@H]1CN(c2cnc3scc(-c4ccc5oc(N)nc5c4)c3c2)CCN1` here.
*A* < 5.00

*Q* // Input: `Nc1nc2cc(-c3ccc4ncc(C(=O)N5CCOCC5)n4n3)ccc2o1` . Output its pIC50 only.
*A* > 5.00

*Q* // fetch pIC50 given entry `Nc1nc2cc(-c3ccc4ncc(-c5ccc(N6CCOCC6)nc5)nc4c3)ccc2o1`
*A* < 5.00

*Q* Consider the molecule `CN1CCN(C(=O)c2cnc3ccc(-c4ccc5nc(N)oc5c4)cn23)CC1` and give its recorded pIC50.
*A* > 5.00

*Q* Hello, please tell me recorded pIC50 for this one: `CS(=O)(=O)CCN1CCN(C(=O)c2cnc3ccc(-c4ccc5oc(N)nc5c4)cn23)CC1`
*A* > 5.00

*Q* Read off the recorded pIC50 for `C[C@H](N)C(=O)N1CCN(c2cnc3ccc(-c4ccc5oc(N)nc5c4)cc3n2)CC1`
*A* > 7.00

*Q* Look up and report measured pIC50 for this entry: `O=C(c1cnc2ccc(-c3ccc4oc(NC5CC5)nc4c3)cn12)N1CCOCC1`
*A* < 5.00

*Q* Answer with the recorded pIC50 for the molecule listed here: `CC(=O)N1CCC(Nc2cnc3ccc(-c4ccc5oc(N)nc5c4)cc3n2)CC1`
*A* > 5.00

*Q* Provide pIC50 value for the following molecule: `O=C(c1cnc2ccc(-c3cncc4[nH]ncc34)cn12)N1CCOCC1`
*A* < 5.00

*Q* For the molecule `Cc1cc(-c2ccc3oc(N)nc3c2)cc2c(C(=O)N3CCOCC3)cnn12` , give its measured pIC50 value.
*A* > 5.00

*Q* Consider the molecule `CNc1nc2cc(-c3ccc4ncc(C(=O)N5CCOCC5)n4c3)ccc2o1` and give its recorded pIC50.
*A* > 5.00

*Q* Supply recorded pIC50 for `CN1CCN(c2cnc3ccc(-c4ccc5sc(N)nc5c4)cc3n2)CC1` here.
*A* > 7.00

*Q* Return pIC50 for the following molecule: `Nc1nc2ccc(-c3ccc4ncc(C(=O)N5CCOCC5)n4c3)cc2[nH]1`
*A* < 5.00

*Q* For the molecule `Nc1nc2cc(-c3ccc4ncc(-c5ccncc5)nc4c3)ccc2o1` , give its reported pIC50.
*A* > 5.00

*Q* Let me know recorded pIC50 for `Nc1nc2cc(-c3ccc4ncc(N5CCCC5)nc4c3)ccc2o1` , thanks.
*A* > 6.00

*Q* Provide only the value of recorded pIC50 for `CC(=O)N1CCN(C2CN(c3cnc4ccc(-c5ccc6oc(N)nc6c5)cc4n3)C2)CC1`
*A* > 5.00

*Q* Look up and report measured pIC50 for this entry: Nc1nc2cc(-c3ccc4ncc(C(=O)N5CCC(N6CCC(F)(F)C6)C5)n4c3)ccc2o1 (centres unmarked)
*A* < 5.00

*Q* Give the reported value of pIC50 for this record: `Nc1nc2cccc(-c3ccc4nccc(-c5ccncc5)c4c3)c2o1`
*A* > 7.00

*Q* Provide one value: measured pIC50 of `Nc1nc2cc(-c3ccc4ncc(C(=O)N5CC(N6CCOCC6)C5)n4c3)ccc2o1`
*A* > 5.00

*Q* Provide pIC50 value for the following molecule: `CC(=O)Nc1cn2cc(-c3ccc4nccc(-c5ccncc5)c4c3)ccc2n1`
*A* < 5.00

*Q* Name the recorded pIC50 of the molecule listed here: `CN1CCN(c2ncnc3ccc(-c4ccc5oc(N)nc5c4)cc23)CC1`
*A* > 6.00

*Q* Indicate the recorded pIC50 value for this molecule: `O=C(c1cnc2ccc(-c3ccc4c(Nc5ccccc5)nsc4c3)cn12)N1CCOCC1`
*A* < 5.00

*Q* For the molecule `O=C(c1cnc2ccc(-c3cccc(NS(=O)(=O)c4ccc(F)cc4F)c3)cn12)N1CCOCC1` , give its reported pIC50.
*A* < 5.00

*Q* Determine from records and report pIC50 for `Nc1nc2cc(-c3cnc4ncc(-c5ccncc5)n4c3)ccc2o1`
*A* < 5.00
